Study System: PARD3_3, Q8TEW0
Sequence (Q8TEW0 582-685): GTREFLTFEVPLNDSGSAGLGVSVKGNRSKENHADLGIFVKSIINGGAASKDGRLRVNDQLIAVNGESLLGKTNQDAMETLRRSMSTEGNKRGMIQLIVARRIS
Measurement Description: holdup assay
Design: key: below the threshold = too weak to quantify, mostly under pKd 3.1 to 4
Test Parameters: plain residues with an end cap or a label only (N-terminal biotin on a linker: ahx)
Measured Attribute: pKd

Binder	pKd
GYDWGPATDL [TJP3, O95049]	3.66
TVICWPGSLV [LNX2, Q8N448]	3.68
NRKREIFSNF [NHERF2, Q15599]	below the threshold
RAVEEEESRF [PSCDBP, O60759]	4.09
HNAFLSVTTV [PDZRN4, Q6ZMN7]	3.81

Inquiry: Provide measured pKd value, entry: PSASCAVTAA [PDLIM4, P50479;P50479-2]
Reply text: below the threshold

Data credit: paper PMC9482650
